The values you see were collected from ChEMBL document CHEMBL5303573.

Assay setup: bacteroides fragilis, 12 h, 2 µM
Description: The drug is tested on Bacteroides fragilis strain: NCTC 9343 for biotransformation. The drug concentrations were measured before and after a 12-h incubation by liquid-chromatography-coupled mass spectrometry (LC–MS)
Readout name: Bacterial Biotransformation

molecule=CC(C)c1nc(CN(C)C(=O)N[C@H](C(=O)N[C@@H](Cc2ccccc2)C[C@H](O)[C@H](Cc2ccccc2)NC(=O)OCc2cncs2)C(C)C)cs1 readout_name="Bacterial Biotransformation" result="Compound metabolized"
molecule="CN1CCOC(c2ccccc2)c2ccccc2C1 (centres undefined)" readout_name="Bacterial Biotransformation" result="Compound NOT metabolized"
molecule="O=C1NCC2(CCN(CCc3ccccc3)CC2)O1 [FENSPIRIDE]" readout_name="Bacterial Biotransformation" result="Compound metabolized"
molecule="C#C[C@]1(OC(C)=O)CC[C@H]2[C@@H]3CCC4=C[C@@H](OC(C)=O)CC[C@@H]4[C@H]3CC[C@@]21C [ETHYNODIOL DIACETATE]" readout_name="Bacterial Biotransformation" result="Compound NOT metabolized"

* * *

Assay details: The drug is tested on Bacteroides coprophilus strain: DSM18228 for biotransformation. The drug concentrations were measured before and after a 12-h incubation by liquid-chromatography-coupled mass spectrometry (LC–MS)
Assay setup: 2 µM
Readout name: Bacterial Biotransformation

Before answering, review these 5 worked examples.
molecule="COc1cc(NC(C)CCCN)c2ncccc2c1.O=P(O)(O)O.O=P(O)(O)O (stereo not given) [PRIMAQUINE PHOSPHATE]" result="Compound NOT metabolized"
molecule=O=c1n(CCCN2CCN(c3cccc(Cl)c3)CC2)nc2ccccn12 result="Compound NOT metabolized"
molecule=COc1ccc2cc([C@H](C)C(=O)O)ccc2c1 result="Compound NOT metabolized"
molecule=CC[C@H](C)C(=O)O[C@H]1CCC=C2C=C[C@H](C)[C@H](CC[C@@H]3C[C@@H](O)CC(=O)O3)[C@H]21 result="Compound metabolized"
molecule="CN1[C@@H]2CC[C@H]1C[C@@H](OC(=O)C(CO)c1ccccc1)C2 (stereo not given in full)" result="Compound NOT metabolized"

**Q:** May I ask what Bacterial Biotransformation has been recorded for CCCC1O[C@@H]2C[C@H]3[C@@H]4CCC5=CC(=O)C=C[C@]5(C)[C@H]4[C@@H](O)C[C@]3(C)[C@]2(C(=O)CO)O1 (stereo not given in full) [BUDESONIDE] ?
**A:** Compound NOT metabolized

**Q:** Next molecule: "O=C1[C@H](CC[C@H](O)c2ccc(F)cc2)[C@@H](c2ccc(O)cc2)N1c1ccc(F)cc1"
**A:** Compound NOT metabolized

**Q:** Next molecule: COc1c(C)c2c(c(O)c1C/C=C(\C)CCC(=O)OCCN1CCOCC1)C(=O)OC2 [MYCOPHENOLATE MOFETIL]
**A:** Compound metabolized

**Q:** Next molecule: "CN1CCc2c(c3ccccc3n2Cc2ccccc2)C1.CN1CCc2c(c3ccccc3n2Cc2ccccc2)C1.O=S(=O)(O)c1cccc2c(S(=O)(=O)O)cccc12"
**A:** Compound NOT metabolized

**Q:** Next molecule: C#C[C@]1(OC(C)=O)CC[C@H]2[C@@H]3CCC4=C/C(=N/O)CC[C@@H]4[C@H]3CC[C@@]21CC [NORGESTIMATE]
**A:** Compound NOT metabolized

* * *

Assay details: The drug is tested on Bacteroides ovatus strain: ATCC8483 for biotransformation. The drug concentrations were measured before and after a 12-h incubation by liquid-chromatography-coupled mass spectrometry (LC–MS)
Assay setup: 2 µM
Readout name: Bacterial Biotransformation

Before answering, review these 5 worked examples.
compound="CN1CCN(C2=Nc3ccccc3Oc3ccc(Cl)cc32)CC1.O=C(O)CCC(=O)O [LOXAPINE SUCCINATE]" result="Compound NOT metabolized"
compound="O=P(O)(O)O.c1ccc(CN(CC2=NCCN2)c2ccccc2)cc1 [ANTAZOLINE PHOSPHATE]" result="Compound NOT metabolized"
compound=COC(=O)Nc1nc2ccc(C(=O)c3ccccc3)cc2[nH]1 result="Compound NOT metabolized"
compound="O=c1[nH]c2ccccc2n1C1CCN(CCCC(c2ccc(F)cc2)c2ccc(F)cc2)CC1 [PIMOZIDE]" result="Compound NOT metabolized"
compound=CO[C@]12C[C@@H](COC(=O)c3cncc(Br)c3)CN(C)[C@@H]1Cc1cn(C)c3cccc2c13 result="Compound NOT metabolized"

**Q:** May I ask what Bacterial Biotransformation has been recorded for CCCN1C[C@H](CSC)C[C@@H]2c3cccc4[nH]cc(c34)C[C@H]21.CS(=O)(=O)O [PERGOLIDE MESYLATE] ?
**A:** Compound NOT metabolized

**Q:** Next compound: "CCN(C(C)=O)c1cccc(-c2ccnc3c(C#N)cnn23)c1"
**A:** Compound NOT metabolized

**Q:** Next compound: CCCC1O[C@@H]2C[C@H]3[C@@H]4CCC5=CC(=O)C=C[C@]5(C)[C@H]4[C@@H](O)C[C@]3(C)[C@]2(C(=O)CO)O1 (stereo partly drawn) [BUDESONIDE]
**A:** Compound NOT metabolized
